# studyTarget: Human DP1 receptor (Homo sapiens (Human), UniProt Q13258)
# Sequence (Q13258 whole entry): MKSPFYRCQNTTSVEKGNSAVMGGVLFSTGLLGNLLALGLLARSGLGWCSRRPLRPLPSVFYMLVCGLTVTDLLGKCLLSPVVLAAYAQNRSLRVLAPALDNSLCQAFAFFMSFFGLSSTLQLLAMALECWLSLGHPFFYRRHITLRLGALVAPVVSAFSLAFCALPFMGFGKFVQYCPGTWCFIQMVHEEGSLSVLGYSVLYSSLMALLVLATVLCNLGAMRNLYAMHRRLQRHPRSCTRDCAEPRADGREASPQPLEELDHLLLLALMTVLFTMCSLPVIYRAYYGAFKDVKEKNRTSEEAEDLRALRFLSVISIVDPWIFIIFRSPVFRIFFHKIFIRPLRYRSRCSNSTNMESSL
# procedureSummary: Human DP1 inhibitory activity in DP1-expressing cell (PGD2-induced cAMP)
# Type: cell-based
# measurementConditions: category of cAMP IC50, human DP1 receptor expressing Jurkut cell
This section presents compounds with their documented IC50 values.

Example cases with answers are listed next.
Cc1cccc2c1c(CC(=O)O)nn2[C@H]1CN(S(=O)(=O)c2ccc(OC(C)C)cc2)C[C@H]1C: < 100 nM
CCOc1ccc(S(=O)(=O)N2C[C@@H](C)[C@@H](n3nc(CC(=O)O)c4ccc(F)cc43)C2)cn1: < 100 nM
CC(C)Oc1ccc(S(=O)(=O)N2C[C@H](n3nc(CC(=O)O)c4ccc(F)cc43)C[C@@H]2c2ccccn2)cc1 [Compound I-351]: 100 to 5000 nM
CC(C)Oc1ccc(S(=O)(=O)N2[C@@H]3CC[C@H]2C[C@H](n2nc(CC(=O)O)c4ccc(F)cc42)C3)cc1: 100 to 5000 nM
CCOc1ccc(S(=O)(=O)N2C[C@@H](C)[C@@H](n3nc(CC(=O)O)c4cc(F)ccc43)C2)cc1: < 100 nM
CCOc1ccc(S(=O)(=O)N2C[C@H](C)[C@@H](n3nc(CC(=O)O)c4ccccc43)C2)cn1: 100 to 5000 nM
CCOc1ccc(S(=O)(=O)N2C[C@@H](C)[C@@H](n3nc(CC(=O)O)c4ccc(C)cc43)C2)s1: < 100 nM
CCOc1ccc(S(=O)(=O)N2C[C@@H](n3nc(CC(=O)O)c4ccccc43)[C@](C)(F)C2)cc1: 100 to 5000 nM
CO[C@@H]1CN(S(=O)(=O)c2ccc(OC(C)C)cc2)C[C@@H]1n1nc(CC(=O)O)c2ccc(F)cc21: 100 to 5000 nM
CC[C@@H]1CN(S(=O)(=O)c2ccc(OC(C)C)cc2)C[C@@H]1n1nc(CC(=O)O)c2ccc(F)cc21: < 100 nM

Quick one: IC50 for CCOc1ccc(S(=O)(=O)N2C[C@@H](C)[C@@H](n3nc(CC(=O)O)c4ccccc43)C2)c(CO)c1 ? < 100 nM

Quick one: IC50 for CCOc1ccc(S(=O)(=O)N2C[C@@H](C)[C@@H](n3nc(C4(C(=O)O)CC4)c4ccccc43)C2)cc1 ? < 100 nM

Quick one: IC50 for CC(C)Oc1ccc(S(=O)(=O)N2C[C@@H](CO)[C@@H](n3nc(CC(=O)O)c4ccc(F)cc43)C2)cc1 ? 100 to 5000 nM

Quick one: IC50 for CC(C)Oc1ccc(S(=O)(=O)N2C[C@H](n3nc(CC(=O)O)c4ccc(F)cc43)C[C@@H]2COc2ccccn2)cc1 ? 100 to 5000 nM
